Sourced from the Immune Epitope Database (IEDB)

Molecular target: HLA-A*23:01
Experiment: IEDB peptide-MHC binding, purified MHC/competitive/fluorescence; filed as Kd, often an IC50 or EC50 that approximates it; bounds were set here for any values at or beyond the usual limits of such assays
Conditions: source organism: Yersinia pestis Nepal516
pKd: −log10 of the molar value.
result.type: pKd

Recorded pKd of YADGGQWYN , please.
≤ 4.70

* * *

Target: HLA-A*68:01
Assay: IEDB peptide-MHC binding, purified MHC/competitive/radioactivity; filed as Kd, often an IC50 or EC50 that approximates it; bounds were set here for any values at or beyond the usual limits of such assays
Conditions: source organism: Mammarenavirus juninense
pKd values for the sequences below.
Please keep in mind that pKd is minus log10 of the molar concentration; only the number is needed.

* GFKNGSRHSH | 5.53

Under HLA-A*68:01: pKd value of MVGLLSNSPH ?
6.18
